- Test system: MOLT-4 leukemia
- assay-info: NCI tumour cell line growth inhibition, 48 h
Catalogue of TGI values
readout-kind: TGI

{"molecule": "N#C/C(=C\\c1ccc([N+](=O)[O-])o1)c1n[nH]c(Cc2ccccc2)n1", "test-result": "> 100 µM"}
{"molecule": "CCN(CC)S(=O)(=O)c1cccc(-c2ccc3c(NC(=O)C4CC4)n[nH]c3c2)c1", "test-result": "> 6.25 µM"}
{"molecule": "Cc1c(NC(=O)CSC(=S)N(C)C)c(=O)n(-c2ccccc2)n1C", "test-result": "> 100 µM"}
{"molecule": "CCOC(=O)c1csc(C(CSCc2ccc(OC)cc2)N2C(=O)c3ccccc3C2=O)n1 (stereo not given)", "test-result": "> 100 µM"}
{"molecule": "Nn1c(-c2cccc(Cl)c2)nc2ccccc2c1=O", "test-result": "> 100 µM"}
{"molecule": "CC(=O)CCc1ccc(Oc2c3c(nc4ccccc24)OCC3)cc1", "test-result": "> 100 µM"}
{"molecule": "CC(=O)[CH-]C(=O)c1ccccc1.CC(=O)[CH-]C(=O)c1ccccc1.CC[C@H](/C=C/C(C)[C@H]1CCC2[C@@H]3CC=C4C[C@@H]([O-])CC[C@]4(C)C3CC[C@@]21C)C(C)C.CC[C@H](/C=C/C(C)[C@H]1CCC2[C@@H]3CC=C4C[C@@H]([O-])CC[C@]4(C)C3CC[C@@]21C)C(C)C.Cl.[Ti+4] (stereo not given in full)", "test-result": "> 25 µM"}
{"molecule": "Clc1cc(OCc2nn3c(Cc4ccccc4)nnc3s2)c(Cl)cc1OCc1nn2c(Cc3ccccc3)nnc2s1", "test-result": "19.8 µM"}
{"molecule": "COC(=O)CSc1nc2[nH]c(SC)c(C(N)=O)c2c(=O)n1-c1ccccc1", "test-result": "> 10 µM"}
{"molecule": "CC(=O)O[C@H]1CC[C@H]2[C@@H]3CCC4=C/C(=N/OCCN(C)C)CC[C@]4(C)[C@H]3CC[C@]12C", "test-result": "13 µM"}

Hello, the source for this data is PubChem BioAssay (NCI), in case you need it.
